Entries annotated with measured Emax relative to WT
molecular target: G12V antigen peptide presented on SW620-DPB cells (SW620 expressing HLA-DPB1*03:01) (human); test: cell-based or functional assay
// note: answer is a bare numeric in %

# binder, readout.label, number
measured = [
    ("α49K-S (TCR) TCR alpha: AQSVAQPEDQVNVAEGNPLTVKCTYSVSGNPYLFWYVQYPNRGLQFLLSYITGDNLVKGSYGFEAEFNKSQTSFHLKKPSALVSDSALYFCAVRDGRGGGNKLTFGTGTQLKVEL TCR beta: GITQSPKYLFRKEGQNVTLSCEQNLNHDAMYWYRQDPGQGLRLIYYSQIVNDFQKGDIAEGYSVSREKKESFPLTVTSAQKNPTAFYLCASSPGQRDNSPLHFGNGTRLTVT", "Emax relative to WT", 106),
    ("β56Q-W (TCR) TCR alpha: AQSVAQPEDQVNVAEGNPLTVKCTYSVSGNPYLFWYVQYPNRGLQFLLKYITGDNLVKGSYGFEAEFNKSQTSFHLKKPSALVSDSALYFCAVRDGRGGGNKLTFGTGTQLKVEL TCR beta: GITQSPKYLFRKEGQNVTLSCEQNLNHDAMYWYRQDPGQGLRLIYYSQIVNDFWKGDIAEGYSVSREKKESFPLTVTSAQKNPTAFYLCASSPGQRDNSPLHFGNGTRLTVT", "Emax relative to WT", 53),
    ("β56Q-A (TCR) TCR alpha: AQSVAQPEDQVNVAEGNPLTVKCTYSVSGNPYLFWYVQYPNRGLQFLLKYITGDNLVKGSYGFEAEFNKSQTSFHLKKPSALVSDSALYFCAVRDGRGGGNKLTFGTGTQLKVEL TCR beta: GITQSPKYLFRKEGQNVTLSCEQNLNHDAMYWYRQDPGQGLRLIYYSQIVNDFAKGDIAEGYSVSREKKESFPLTVTSAQKNPTAFYLCASSPGQRDNSPLHFGNGTRLTVT", "Emax relative to WT", 103),
]

# context switch: different binder, same Emax relative to WT
query: Given the entry β56Q-H (TCR) TCR alpha: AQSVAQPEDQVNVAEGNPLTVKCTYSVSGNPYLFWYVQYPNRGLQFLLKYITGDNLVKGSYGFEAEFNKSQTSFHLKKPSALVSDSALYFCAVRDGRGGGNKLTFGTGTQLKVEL TCR beta: GITQSPKYLFRKEGQNVTLSCEQNLNHDAMYWYRQDPGQGLRLIYYSQIVNDFHKGDIAEGYSVSREKKESFPLTVTSAQKNPTAFYLCASSPGQRDNSPLHFGNGTRLTVT , report its measured Emax relative to WT.
result: 97
